# system: ^3H-MK6240 binding sites in the temporal cortex (Homo sapiens)
# Sequence (P10636 623-695 limits assumed): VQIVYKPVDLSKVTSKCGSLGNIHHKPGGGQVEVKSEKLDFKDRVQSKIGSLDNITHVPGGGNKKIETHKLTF
# testSummary: Competitive binding assay with ^3H-MK6240 (0.5 nM) on AD temporal cortex homogenates
# experimentalContext: site 2, low affinity; 2-site competition model; temporal cortex; read-out: IC50(low)
readoutType: pIC50
Give bare numbers, as −log10 of the molar value.

q: What reported pIC50 corresponds to CNc1ccc(-c2ccc3cc(OCC(O)CF)ccc3n2)cc1 (stereo not shown) [THK5117] on ^3H-MK6240 binding sites in the temporal cortex (Homo sapiens)?
a: 6.52
